Assay: Paroxetine co-treatment crossover PK study in healthy subjects
Format: in vivo, human
Conditions: human, plasma, 10 ug; 10 μg oral, without paroxetine, mean, n = 5
READOUT LABEL: Cmax (ng/mL)
The answer is to be given in ng/mL; state only the numeric part.

Ask: Consider the molecule shown here: COc1cccc2c1CCOC2C1=NCCN1 (stereo not shown) [tasipimidine] What is its recorded Cmax?
Result: 0.026

* * *

Assay: Blood to plasma ratio and fraction unbound in plasma (PBPK input parameters)
Format: in vitro ADME
Settings: human, plasma; input parameter of the PBPK model
READOUT LABEL: fraction unbound
Form rule: numeric answer, no unit written next to it.

Ask: Consider the compound shown here: COc1cccc2c1CCOC2C1=NCCN1 (stereo not shown) [tasipimidine] What is its recorded fraction unbound?
Result: 0.86

Recorded values, source patent US20260097017A1.
